// data source = paper PMC9398005

Target: Rbpj E89G (mouse, UniProt P31266 53-474, E89G)
Sequence (P31266 53-474 E89G): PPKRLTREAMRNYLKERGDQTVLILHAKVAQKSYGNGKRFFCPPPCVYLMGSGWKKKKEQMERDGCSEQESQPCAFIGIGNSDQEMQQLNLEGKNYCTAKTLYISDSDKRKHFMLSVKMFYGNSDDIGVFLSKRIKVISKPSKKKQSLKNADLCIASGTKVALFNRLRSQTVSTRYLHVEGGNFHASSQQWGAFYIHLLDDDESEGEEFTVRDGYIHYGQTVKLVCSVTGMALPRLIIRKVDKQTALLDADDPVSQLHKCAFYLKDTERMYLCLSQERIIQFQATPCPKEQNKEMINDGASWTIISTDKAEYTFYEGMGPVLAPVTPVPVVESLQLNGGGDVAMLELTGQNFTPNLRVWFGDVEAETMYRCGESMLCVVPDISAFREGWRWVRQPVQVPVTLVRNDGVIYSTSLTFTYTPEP
Assay: ITC; 10 C; ITC: 50 mM sodium phosphate, 150 mM NaCl, 10 C (pH not stated); EMSA purified: 3.4 nM probe, 10 min room temperature; EMSA IVT: 10 mM Tris-HCl pH 7.5, 100 mM NaCl, 0.1 mM EDTA, 0.5 mM DTT, 4% glycerol, poly(dI-dC)
Conditions: protein: recombinant; tags: GST removed by PreScission (pGEX-6P1); blunt
pKd: −log10 of the molar value.
Measured Parameter: pKd

INSERT INTO results (binder, measured_number) VALUES
  ('ITC 20-mer CSL duplex (dsDNA) DNA 1: GGCACCGTGGGAAACTAGTG DNA 2: CACTAGTTTCCCACGGTGCC', 6.36);
